tested-target: human DPP1 enzyme (Homo sapiens (Human), UniProt P53634)
experimental-protocol: Human DPP1 enzyme IC50 assay
Assay type: biochemical
details: recombinant human DPP1, H-Gly-Arg-AMC substrate 400 μM
Protocol: Test articles were applied to activated human DPP1 enzyme in Assay Buffer (25 mM MES pH 6.0, 50 mM NaCl, 5 mM DTT) in a total reaction volume of 125 μL. […] Substrate cleavage was measured for 90 minutes at 37° C., with fluorescence at Excitation/Emission 350/450 nm measured every 5 minutes. […]
measured-endpoint: IC50

Look over these answered cases.
q: So what does the record say about IC50 for Cn1c(=O)oc2ccc(-c3ccc(C[C@@H](C#N)NC(=O)CC(N)c4cocn4)cc3)cc21 (stereo partly drawn) ?
a: ≥ 15 nM

q: So what does the record say about IC50 for CCC(N)CC(=O)N[C@H](C#N)Cc1ccc(-c2ccc3oc(=O)n(C)c3c2)cc1 (stereo partly drawn) ?
a: ≥ 15 nM

q: So what does the record say about IC50 for Cn1c(=O)oc2ccc(-c3ccc(C[C@@H](C#N)NC(=O)C(N)Cc4cocn4)cc3)cc21 (stereo partly drawn) ?
a: ≤ 5 nM

q: So what does the record say about IC50 for CN(C)C[C@H](O)C(=O)N[C@H](C#N)Cc1cc2c(cc1F)-c1ccc(C#N)cc1CO2 [Compound 277A] ?
a: ≥ 15 nM

Next:
q: So what does the record say about IC50 for `Cn1c(=O)oc2ccc(-c3ccc(C[C@@H](C#N)NC(=O)C[C@@H](N)Cc4ccccc4)cc3)cc21` ?
a: ≥ 15 nM

q: So what does the record say about IC50 for Cn1c(=O)oc2ccc(-c3ccc(C[C@@H](C#N)NC(=O)C(N)Cc4cc[nH]n4)cc3)cc21 (stereo partly drawn) ?
a: ≤ 5 nM

q: So what does the record say about IC50 for `Cn1c(=O)oc2ccc(-c3ccc(C[C@@H](C#N)NC(=O)C[C@@H](N)Cc4cccc(O)c4)cc3)cc21` ?
a: ≥ 15 nM

q: So what does the record say about IC50 for `CN(C)C[C@H](O)C(=O)N[C@H](C#N)Cc1ccc(-c2ccc3cnn(C4CCN(C)CC4)c3c2)cc1F` ?
a: 5 to 15 nM

q: So what does the record say about IC50 for `Cn1c(=O)oc2ccc(-c3ccc(C[C@@H](C#N)NC(=O)[C@@H](O)CN4CCOCC4)cc3)cc21` ?
a: ≥ 15 nM

q: So what does the record say about IC50 for `CN[C@@H](C)C(=O)N[C@H](C#N)Cc1ccc(-c2ccc3oc(=O)n(C)c3c2)cc1` ?
a: ≥ 15 nM

====

tested-target: active mouse DPP1 enzyme (Mus musculus (Mouse))
Sequence (P97821 25-134): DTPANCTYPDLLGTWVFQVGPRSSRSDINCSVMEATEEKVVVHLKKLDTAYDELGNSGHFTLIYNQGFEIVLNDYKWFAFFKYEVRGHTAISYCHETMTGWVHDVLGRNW
Sequence (P97821 231-393): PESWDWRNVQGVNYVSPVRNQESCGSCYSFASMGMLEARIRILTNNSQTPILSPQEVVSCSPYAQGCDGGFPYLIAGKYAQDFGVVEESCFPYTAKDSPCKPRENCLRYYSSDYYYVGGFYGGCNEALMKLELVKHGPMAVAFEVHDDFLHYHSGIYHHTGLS
Sequence (P97821 394-462): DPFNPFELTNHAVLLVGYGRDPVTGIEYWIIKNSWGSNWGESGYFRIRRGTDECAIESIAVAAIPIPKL
experimental-protocol: Mouse DPP1 enzyme IC50 assay
Type: biochemical
details: active mouse DPP1, H-Gly-Arg-AMC substrate 400 μM
measured-endpoint: IC50

Look over these answered cases.
q: So what does the record say about IC50 for `CN(C)CC(=O)N[C@H](C#N)Cc1ccc(-c2ccc3oc(=O)n(C)c3c2)cc1` ?
a: ≥ 20 nM

q: So what does the record say about IC50 for C=CCC(CN)C(=O)N[C@H](C#N)Cc1ccc(-c2ccc3oc(=O)n(C)c3c2)cc1 (stereo partly shown) ?
a: ≥ 20 nM

Next:
q: So what does the record say about IC50 for `C=CC[C@H](N)CC(=O)N[C@H](C#N)Cc1ccc(-c2ccc3oc(=O)n(C)c3c2)cc1` ?
a: ≥ 20 nM

q: So what does the record say about IC50 for `CN(C)C[C@H](O)C(=O)N[C@H](C#N)Cc1ccc(-c2ccc3oc(=O)n(CCN4CCOCC4)c3c2)cc1` ?
a: 5 to 20 nM

====

tested-target: human DPP1 enzyme (Homo sapiens (Human))
experimental-protocol: Human DPP1 enzyme IC50 assay
Format: biochemical
details: recombinant human DPP1, H-Gly-Arg-AMC substrate 400 μM
measured-endpoint: IC50

Look over these answered cases.
q: So what does the record say about IC50 for `CO[C@@H](CN(C)C)C(=O)N[C@H](C#N)Cc1ccc(-c2ccc3oc(=O)n(C)c3c2)cc1` ?
a: ≥ 15 nM

q: So what does the record say about IC50 for `CN(C)C[C@H](O)C(=O)N[C@H](C#N)Cc1ccc(-c2ccc3c(c2)C2(CCN(C4COC4)CC2)OC3)cc1F` ?
a: 5 to 15 nM

q: So what does the record say about IC50 for `CN(C)C[C@H](O)C(=O)N[C@H](C#N)Cc1ccc(-c2ccc3oc(=O)n(C)c3c2)cc1F` ?
a: 5 to 15 nM

q: So what does the record say about IC50 for `CN(C)C[C@H](O)C(=O)N[C@H](C#N)Cc1ccc(-c2ccc3c(c2)C2(CN(C)C2)OC3=O)cc1` ?
a: ≥ 15 nM

q: So what does the record say about IC50 for `Cn1c(=O)oc2ccc(-c3ccc(C[C@@H](C#N)NC(=O)CCC#N)cc3)cc21` ?
a: ≥ 15 nM

Next:
q: So what does the record say about IC50 for `CNCCC(=O)N[C@H](C#N)Cc1ccc(-c2ccc3oc(=O)n(C)c3c2)cc1` ?
a: ≥ 15 nM

q: So what does the record say about IC50 for `Cc1ccccc1C[C@H](CN)C(=O)N[C@H](C#N)Cc1ccc(-c2ccc3oc(=O)n(C)c3c2)cc1` ?
a: ≥ 15 nM

q: So what does the record say about IC50 for `CNC[C@H](O)C(=O)N[C@H](C#N)Cc1ccc(-c2ccc3oc(=O)n(C)c3c2)cc1` ?
a: ≥ 15 nM

q: So what does the record say about IC50 for CC(C)C(N)CC(=O)N[C@H](C#N)Cc1ccc(-c2ccc3oc(=O)n(C)c3c2)cc1 (some centres unmarked) ?
a: ≥ 15 nM

q: So what does the record say about IC50 for `Cn1c(=O)oc2ccc(-c3ccc(C[C@@H](C#N)NC(=O)CCN)cc3)cc21` ?
a: ≥ 15 nM

q: So what does the record say about IC50 for CCN1C(=O)Cc2ccc(-c3ccc(C[C@@H](C#N)NC(=O)[C@@](C)(N)C4CCCC4)cc3)cc21 [Compound 259A] ?
a: ≤ 5 nM

q: So what does the record say about IC50 for Cn1c(=O)oc2ccc(-c3ccc(C[C@@H](C#N)NC(=O)C(C)(N)c4ccc(O)cc4)cc3)cc21 (some centres unmarked) ?
a: ≥ 15 nM

====

tested-target: human DPP1 enzyme (Homo sapiens (Human))
experimental-protocol: Human DPP1 enzyme IC50 assay
Format: biochemical
details: recombinant human DPP1, H-Gly-Arg-AMC substrate 400 μM
measured-endpoint: IC50

Look over these answered cases.
q: So what does the record say about IC50 for Cn1c(=O)oc2ccc(-c3ccc(C[C@@H](C#N)NC(=O)C4(N)CCCC45CC5)c(F)c3)cc21 (stereo partly shown) [Compound 273B] ?
a: ≤ 5 nM

q: So what does the record say about IC50 for `CN(C)C[C@H](O)C(=O)N[C@H](C#N)Cc1ccc(-c2ccc3oc(=O)n(C)c3c2)cc1` ?
a: ≥ 15 nM

q: So what does the record say about IC50 for `CCN(C)C[C@H](OC)C(=O)N[C@H](C#N)Cc1ccc(-c2ccc3oc(=O)n(C)c3c2)cc1` ?
a: ≥ 15 nM

q: So what does the record say about IC50 for Cn1c(=O)oc2ccc(-c3ccc(C[C@@H](C#N)NC(=O)C(C)(N)C4CCC4)cc3)cc21 (stereo partly shown) ?
a: ≤ 5 nM

q: So what does the record say about IC50 for Cn1c(=O)oc2ccc(-c3ccc(C[C@@H](C#N)NC(=O)C(C)(N)c4cccnc4)cc3)cc21 (stereo partly shown) ?
a: ≥ 15 nM

Please examine the following record next.
q: So what does the record say about IC50 for `CO[C@@H](CN(C)C)C(=O)N[C@H](C#N)Cc1ccc(-c2ccc3c(c2)C2(CCN(C4COC4)CC2)OC3)cc1F` ?
a: 5 to 15 nM

====

// reported IC50 per item
tested-target: DPP1 in HL-60 cells (Homo sapiens (Human))
Sequence (P53634 25-134): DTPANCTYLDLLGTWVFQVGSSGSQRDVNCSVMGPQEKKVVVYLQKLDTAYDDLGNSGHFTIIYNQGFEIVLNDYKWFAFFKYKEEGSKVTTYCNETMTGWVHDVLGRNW
Sequence (P53634 231-394): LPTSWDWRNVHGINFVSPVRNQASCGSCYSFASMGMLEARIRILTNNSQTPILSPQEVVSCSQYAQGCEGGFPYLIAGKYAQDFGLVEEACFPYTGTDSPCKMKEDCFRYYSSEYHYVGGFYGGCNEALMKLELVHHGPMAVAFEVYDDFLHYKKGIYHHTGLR
Sequence (P53634 395-463): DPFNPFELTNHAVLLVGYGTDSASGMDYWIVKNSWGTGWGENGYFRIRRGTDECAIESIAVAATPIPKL
experimental-protocol: DPP1 Cell IC50 assay
details: H-Gly-Phe-AFC substrate, 60 min pre-incubation

Look over these answered cases.
q: So what does the record say about IC50 for CN(C)C[C@H](O)C(=O)N[C@H](C#N)Cc1ccc(-c2ccc3c(c2)C(C2CCN(C4COC4)CC2)OC3)cc1 (stereo partly shown) [Compound 281] ?
a: ≥ 2.5 nM

q: So what does the record say about IC50 for Cn1c(=O)oc2ccc(-c3ccc(C[C@@H](C#N)NC(=O)[C@@H](N)Cc4cn[nH]c4)cc3)cc21 [Compound 214] ?
a: ≥ 2.5 nM

q: So what does the record say about IC50 for Cn1c(=O)oc2ccc(-c3ccc(C[C@@H](C#N)NC(=O)C(N)Cc4ccccc4O)cc3)cc21 (stereo partly shown) [Compound 203] ?
a: ≥ 2.5 nM

q: So what does the record say about IC50 for Cn1c(=O)oc2ccc(-c3ccc(C[C@@H](C#N)NC(=O)[C@@H](N)C4CCCO4)cc3)cc21 (stereo in doubt) [Compound 210] ?
a: ≥ 2.5 nM

q: So what does the record say about IC50 for Cn1c(=O)oc2ccc(-c3ccc(C[C@@H](C#N)NC(=O)[C@H](N)[C@H]4CCCO4)cc3)cc21 [Compound 211] ?
a: ≥ 2.5 nM

q: So what does the record say about IC50 for CN(C)C[C@H](O)C(=O)N[C@H](C#N)Cc1ccc(-c2ccc3cnn(C4CCN(C)CC4)c3c2)cc1F [Compound 285] ?
a: ≥ 2.5 nM

q: So what does the record say about IC50 for CO[C@@H](CN)C(=O)N[C@H](C#N)Cc1ccc(-c2ccc3oc(=O)n(C)c3c2)cc1 [Compound 103] ?
a: ≥ 2.5 nM

q: So what does the record say about IC50 for CO[C@@H](CN(C)C)C(=O)N[C@H](C#N)Cc1ccc(-c2ccc3cnn(C4CCN(C5COC5)CC4)c3c2)cc1F [Compound 288] ?
a: 1 to 2.5 nM

Next:
q: So what does the record say about IC50 for Cn1c(=O)oc2ccc(-c3ccc(C[C@@H](C#N)NC(=O)C(N)Cc4cc[nH]n4)cc3)cc21 (stereo partly shown) [Compound 221] ?
a: ≥ 2.5 nM

q: So what does the record say about IC50 for COCCN(C)CCn1c(=O)oc2ccc(-c3ccc(C[C@@H](C#N)NC(=O)[C@](C)(N)C4CCC4)c(F)c3)cc21 [Compound 270B] ?
a: 1 to 2.5 nM

q: So what does the record say about IC50 for Cn1c(=O)oc2ccc(-c3ccc(C[C@@H](C#N)NC(=O)[C@H](N)[C@@H]4CCCO4)cc3)cc21 [Compound 213] ?
a: ≥ 2.5 nM

q: So what does the record say about IC50 for Cn1c(=O)oc2ccc(-c3ccc(C[C@@H](C#N)NC(=O)[C@@H](N)C4CCCO4)cc3)cc21 (stereo in doubt) [Compound 212] ?
a: 1 to 2.5 nM

q: So what does the record say about IC50 for CCCCOCCn1c(=O)oc2ccc(-c3ccc(C[C@@H](C#N)NC(=O)[C@@H](O)CN(C)C)c(F)c3)cc21 [Compound 146] ?
a: ≥ 2.5 nM
